protocol: Solubility test of dutasteride and tadalafil in oils
Type: physicochemical
measurement parameters: glycerol tricaprylate (oil), oil or lipid, thermodynamic from solid; solvent Glycerol tricaprylate; room temperature, stirring for 24 hours
property label: solubility at 24 h (µg/mL)
Use µg/mL as the unit, but write only the number.

Query: Need solubility at 24 h of CN1CC(=O)N2[C@H](c3ccc4c(c3)OCO4)c3[nH]c4ccccc4c3C[C@@H]2C1=O , thanks.
Response: 400

* * *

protocol: Solubility test of dutasteride and tadalafil in oils
Type: physicochemical
measurement parameters: propylene glycol dicaprate (oil), oil or lipid, thermodynamic from solid; solvent Propylene glycol dicaprate; room temperature, stirring for 24 hours
property label: solubility at 24 h

Query: Look up solubility at 24 h: CN1CC(=O)N2[C@H](c3ccc4c(c3)OCO4)c3[nH]c4ccccc4c3C[C@@H]2C1=O
Response: 270 µg/mL
